Target: Androgen receptor (Homo sapiens, UniProt P10275)
Sequence (P10275 whole entry): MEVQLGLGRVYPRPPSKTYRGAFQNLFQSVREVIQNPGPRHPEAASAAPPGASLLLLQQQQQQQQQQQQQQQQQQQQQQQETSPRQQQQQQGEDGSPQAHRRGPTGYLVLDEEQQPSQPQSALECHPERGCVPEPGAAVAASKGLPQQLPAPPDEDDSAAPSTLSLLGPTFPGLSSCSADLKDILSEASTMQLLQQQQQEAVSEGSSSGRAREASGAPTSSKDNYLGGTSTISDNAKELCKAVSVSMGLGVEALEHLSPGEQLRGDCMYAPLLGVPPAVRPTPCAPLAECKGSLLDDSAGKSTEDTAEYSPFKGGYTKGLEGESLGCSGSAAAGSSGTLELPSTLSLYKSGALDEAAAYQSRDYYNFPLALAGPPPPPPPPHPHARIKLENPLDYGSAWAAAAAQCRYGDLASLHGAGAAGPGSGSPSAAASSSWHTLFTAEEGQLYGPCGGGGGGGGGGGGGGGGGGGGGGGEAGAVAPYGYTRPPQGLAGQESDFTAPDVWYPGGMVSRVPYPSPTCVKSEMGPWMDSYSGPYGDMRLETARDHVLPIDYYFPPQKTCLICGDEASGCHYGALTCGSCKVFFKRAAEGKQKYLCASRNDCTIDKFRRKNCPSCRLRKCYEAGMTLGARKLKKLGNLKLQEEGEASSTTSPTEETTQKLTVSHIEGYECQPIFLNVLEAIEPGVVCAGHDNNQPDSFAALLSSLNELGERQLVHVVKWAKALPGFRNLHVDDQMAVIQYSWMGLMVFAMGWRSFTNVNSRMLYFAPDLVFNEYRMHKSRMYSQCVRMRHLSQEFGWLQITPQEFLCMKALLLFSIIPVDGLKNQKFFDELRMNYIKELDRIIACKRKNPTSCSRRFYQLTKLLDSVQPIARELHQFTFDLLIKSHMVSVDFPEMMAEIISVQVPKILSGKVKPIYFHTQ
pEC50: −log10 of the molar value.
MEASURED PROPERTY: pEC50

[
  {
    "SMILES INPUT": "O=c1cc(C(F)(F)F)c2cc(N(Cc3ccccc3)CC(F)(F)F)ccc2[nH]1",
    "MEASURED PROPERTY": "pEC50",
    "MEASURED RESULT": 7.57
  }
]

###

Biological target: Androgen receptor (Homo sapiens)
pIC50: −log10 of the molar value.

[
  {
    "SMILES INPUT": "O=c1cc(C(F)(F)F)c2cc(N(Cc3ccccc3)CC(F)(F)F)ccc2[nH]1",
    "pIC50": "< 5.00"
  }
]
